Could you please report measured Relative cAMP EC50 for the items listed next?
Biological target: T1, human GIP receptor (human) (UniProt P48546)
T1 sequence (looked up): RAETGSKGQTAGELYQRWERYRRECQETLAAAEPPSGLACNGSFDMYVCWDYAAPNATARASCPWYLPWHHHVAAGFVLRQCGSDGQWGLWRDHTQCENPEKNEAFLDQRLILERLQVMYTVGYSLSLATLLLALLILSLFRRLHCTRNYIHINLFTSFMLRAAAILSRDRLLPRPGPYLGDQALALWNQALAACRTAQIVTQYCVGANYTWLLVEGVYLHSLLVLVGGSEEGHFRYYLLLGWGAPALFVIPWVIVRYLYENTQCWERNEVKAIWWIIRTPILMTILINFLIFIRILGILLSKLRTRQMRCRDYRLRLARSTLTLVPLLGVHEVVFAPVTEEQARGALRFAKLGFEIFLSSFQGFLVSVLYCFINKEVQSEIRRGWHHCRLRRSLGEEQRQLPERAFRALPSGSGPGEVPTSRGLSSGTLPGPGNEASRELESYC
Assay: cell-based or functional assay
Non-standard residues stand in square brackets, D forms with d. No end group written: not given here. αMePhe(2-F) = C[C@](N)(Cc1ccccc1F)C(=O)O; Aib = CC(C)(N)C(=O)O
Your answer is read as nM, so omit the unit and give the number.

Query: Given the entry YXQGTFTSDFSKXLDKKAQXAFIEYLLEGGPSSGAPPPGEG (Aib, αMeL, acylated Lys, C-terminal amide; synthetic construct; SITE 2: note = 2-Aminoisobutyric Acid; SITE 13: note = alpha-methyl-leucine; SITE 17: note = Lysine is chemically modified through conjugation of the epsilon-amino group of the Lysine side chain with (2-[2-(2-Amino-ethoxy)-ethoxy]-acetyl)2-(gamma-Glu)-CO-(CH2 )18-CO2H; SITE 20:) [Example 17] , report its measured Relative cAMP EC50.
Reply: 0.317

Query: Given the entry YXQGTXTSDXXIXLDXKAQXEFIEXLIEGGPPSXXPPPXGGGE (Lys acylated AEEA-γGlu-C18 diacid; non-natural residues; C-amide; synthetic construct; SITE 2: note = 2-Aminoisobutyric Acid; SITE 6: note = alpha-methyl-2-fluoro-L-phenylalanine; SITE 10: note = 3-(4-Pyridyl)-L-alanine; SITE 11: note = alpha-methyl-L-serine; SITE 13: note = alpha-methyl-leucine; SITE 16: note = L-ornithine; SITE 17: note = Lysine is chemically mo) [Example 1197] , report its measured Relative cAMP EC50.
Reply: 0.00666

Query: Given the entry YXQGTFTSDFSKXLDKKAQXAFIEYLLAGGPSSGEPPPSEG (Aib, αMeL; acylated Lys; C-terminal amide; synthetic construct; SITE 2: note = 2-Aminoisobutyric Acid; SITE 13: note = alpha-methyl-leucine; SITE 17: note = Lysine is chemically modified through conjugation of the epsilon-amino group of the Lysine side chain with (2-[2-(2-Amino-ethoxy)-ethoxy]-acetyl)-(gamma-Glu)-CO-(CH2) 18-CO2H; SITE 20: n) [Example 1] , report its measured Relative cAMP EC50.
Reply: 0.207

Query: Given the entry YXQGTFTSDXSQXLDXKAQXAFIEYLIEXGPSSGAPPPSGSEE (synthetic construct; SITE 2: note = 2-Aminoisobutyric Acid; SITE 10: note = 3-(4-Pyridyl)-L-alanine; SITE 13: note = alpha-methyl-leucine; SITE 16: note = L-ornithine; SITE 17: note = Lysine is chemically modified through conjugation of the epsilon-amino group of the Lysine side chain with (gamma-Gl)) [Example 937] , report its measured Relative cAMP EC50.
Reply: 0.222

Query: Given the entry YXQGTFTSDFSKXLDKKAQXAFIEYLAAGGPSSGEPPPSGE (synthetic construct; SITE 2: note = 2-Aminoisobutyric Acid; SITE 13: note = alpha-methyl-leucine; SITE 17: note = Lysine is chemically modified through conjugation of the epsilon-amino group of the Lysine side chain with (epsilon-K)2-(gamma-Glu)-CO-(CH2)18-CO2H; SITE 20: note = 2-Aminoisobutyric Aci) [Example 405] , report its measured Relative cAMP EC50.
Reply: 0.28

Query: Given the entry Y[Aib]QGT[αMePhe(2-F)]TSDYSKLLDKIAQKAFIQYLIEGGPSSGEPPPSEG-NH2 (not fully specified (residue 20)) [Example 338] , report its measured Relative cAMP EC50.
Reply: 0.0733

Query: Given the entry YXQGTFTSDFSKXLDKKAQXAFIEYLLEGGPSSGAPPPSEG (not fully specified; synthetic construct; SITE 2: note = 2-Aminoisobutyric Acid; SITE 13: note = alpha-methyl-leucine; SITE 17: note = Lysine is chemically modified through conjugation of the epsilon-amino group of the Lysine side chain with (2-[2-(2-Amino-ethoxy)-ethoxy]-acetyl)-(gamma-Glu)-CO-(CH2) 16-CO2H; SITE 20: n) [Example 48] , report its measured Relative cAMP EC50.
Reply: 0.27

Query: Given the entry YXQGTFTSDFSQXLDKKAQXAFIEYLLEAGPSSXAPPPSGT (synthetic construct; SITE 2: note = 2-Aminoisobutyric Acid; SITE 13: note = alpha-methyl-leucine; SITE 17: note = Lysine is chemically modified through conjugation of the epsilon-amino group of the Lysine side chain with (2-[2-(2-Amino-ethoxy)-ethoxy]-acetyl)-(gamma-Glu)-CO-(CH2) 16-CO2H; SITE 20: n) [Example 779] , report its measured Relative cAMP EC50.
Reply: 0.112

Query: Given the entry YXQGTFTSDFSKXLDKKAQXAFIEYLLAGGPSSGEPPPSSG (Aib, αMeL, acylated K, C-terminal amide; synthetic construct; SITE 2: note = 2-Aminoisobutyric Acid; SITE 13: note = alpha-methyl-leucine; SITE 17: note = Lysine is chemically modified through conjugation of the epsilon-amino group of the Lysine side chain with (2-[2-(2-Amino-ethoxy)-ethoxy]-acetyl)-(gamma-Glu)-CO-(CH2) 18-CO2H; SITE 20: n) [Example 7] , report its measured Relative cAMP EC50.
Reply: 0.203

Query: Given the entry YXQGTFTSDFSXXLDKKAQXAFIEYLLEGGPSSGAPPPGGS (synthetic construct; SITE 2: note = 2-Aminoisobutyric Acid; SITE 12: note = L-ornithine; SITE 13: note = alpha-methyl-leucine; SITE 17: note = Lysine is chemically modified through conjugation of the epsilon-amino group of the Lysine side chain with (2-[2-(2-Amino-ethoxy)-ethoxy]-acetyl)-(gamma-Glu)) [Example 62] , report its measured Relative cAMP EC50.
Reply: 0.146

Query: Given the entry YXQGTFTSDXSXXLDXKAQXAFIEYLLAGGPSSGAPPPSGSEE (non-natural residues; acylated Lys; C-terminal amide; synthetic construct; SITE 2: note = 2-Aminoisobutyric Acid; SITE 10: note = 3-(4-Pyridyl)-L-alanine; SITE 12: note = L-ornithine; SITE 13: note = alpha-methyl-leucine; SITE 16: note = L-ornithine; SITE 17: note = Lysine is chemically modified through conjugation of the epsilon-amino group of the Lys) [Example 1069] , report its measured Relative cAMP EC50.
Reply: 0.417

Query: Given the entry YXQGTXTSDXSILLDKKAQXAFIEYLEEGGPSSGAPPPSGGEE (Aib, alpha-methyl-2F-Phe, 4Pal, lipidated Lys, amide; synthetic construct; SITE 2: note = 2-Aminoisobutyric Acid; SITE 6: note = alpha-methyl-2-fluoro-L-phenylalanine; SITE 10: note = 3-(4-Pyridyl)-L-alanine; SITE 17: note = Lysine is chemically modified through conjugation of the epsilon-amino group of the Lysine side chain with (gamma-Glu)2-CO-(CH2)1) [Example 612] , report its measured Relative cAMP EC50.
Reply: 0.087

Query: Given the entry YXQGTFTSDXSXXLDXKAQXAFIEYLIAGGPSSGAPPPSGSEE (C-terminal amide; lysine acylated with (Glu)2-γ-Glu-C18 diacid; synthetic construct; SITE 2: note = 2-Aminoisobutyric Acid; SITE 10: note = 3-(4-Pyridyl)-L-alanine; SITE 12: note = L-ornithine; SITE 13: note = alpha-methyl-leucine; SITE 16: note = L-ornithine; SITE 17: note = Lysine is chemically modified through conjugation of the epsilon-amino group of the Lys) [Example 1062] , report its measured Relative cAMP EC50.
Reply: 0.726

Query: Given the entry YXQGTXTSDXSIXLDXKAQXEFIEXLLEGGPSSGAPPPSGS (Lys acylated AEEA-γGlu-C18 diacid; non-natural residues; C-terminal amide; synthetic construct; SITE 2: note = 2-Aminoisobutyric Acid; SITE 6: note = alpha-methyl-2-fluoro-L-phenylalanine; SITE 10: note = 3-(4-Pyridyl)-L-alanine; SITE 13: note = alpha-methyl-leucine; SITE 16: note = L-ornithine; SITE 17: note = Lysine is chemically modified through conjugation of the epsil) [Example 641] , report its measured Relative cAMP EC50.
Reply: 0.00819

Query: Given the entry YXQGTXTSDYSIXLDKKAQXAFIEYLEEGGPSSGAPEPS (synthetic construct; SITE 2: note = 2-Aminoisobutyric Acid; SITE 6: note = alpha-methyl-2-fluoro-L-phenylalanine; SITE 13: note = alpha-methyl-leucine; SITE 17: note = Lysine is chemically modified through conjugation of the epsilon-amino group of the Lysine side chain with (2-[2-(2-Amino-ethoxy)-et)) [Example 423] , report its measured Relative cAMP EC50.
Reply: 0.0114

Query: Given the entry YXQGTXTSDXXIXLDXXAQXEFIEXLVEGGPSSGAPPPSGS (synthetic construct; SITE 2: note = 2-Aminoisobutyric Acid; SITE 6: note = alpha-methyl-2-fluoro-L-phenylalanine; SITE 10: note = 3-(4-Pyridyl)-L-alanine; SITE 11: note = alpha-methyl-L-serine; SITE 13: note = alpha-methyl-leucine; SITE 16: note = L-ornithine; SITE 17: note = Ornithine is chemically) [Example 1210] , report its measured Relative cAMP EC50.
Reply: 0.00704

Query: Given the entry YXQGTXTSDYSIXLDKKAQXAFIEYLEEGGPSSGAPPPSEG (synthetic construct; SITE 2: note = 2-Aminoisobutyric Acid; SITE 6: note = alpha-methyl-2-fluoro-L-phenylalanine; SITE 13: note = alpha-methyl-leucine; SITE 17: note = Lysine is chemically modified through conjugation of the epsilon-amino group of the Lysine side chain with (2-[2-(2-Amino-ethoxy)-et)) [Example 431] , report its measured Relative cAMP EC50.
Reply: 0.0157

Query: Given the entry YXQGTXTSDXXIXLDXKAQXEFIEXLIEGGPPSXEPPPSGSE (non-natural residues, acylated Lys (AEEA-γGlu-C18 diacid), C-terminal amide; synthetic construct; SITE 2: note = 2-Aminoisobutyric Acid; SITE 6: note = alpha-methyl-2-fluoro-L-phenylalanine; SITE 10: note = 3-(4-Pyridyl)-L-alanine; SITE 11: note = alpha-methyl-L-serine; SITE 13: note = alpha-methyl-leucine; SITE 16: note = L-ornithine; SITE 17: note = Lysine is chemically mo) [Example 1200] , report its measured Relative cAMP EC50.
Reply: 0.00883

Query: Given the entry YXQGTFTSDFSKXLDKKAQXAFIEYLLAGGPSSGAPPPSGG (Aib, αMeL; acylated Lys; C-terminal amide; synthetic construct; SITE 2: note = 2-Aminoisobutyric Acid; SITE 13: note = alpha-methyl-leucine; SITE 17: note = Lysine is chemically modified through conjugation of the epsilon-amino group of the Lysine side chain with (2-[2-(2-Amino-ethoxy)-ethoxy]-acetyl)-(gamma-Glu)-CO-(CH2) 18-CO2H; SITE 20: n) [Example 12] , report its measured Relative cAMP EC50.
Reply: 0.17

Query: Given the entry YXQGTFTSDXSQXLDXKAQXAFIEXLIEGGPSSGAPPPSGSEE (Aib, 4Pal, αMeL, Orn, Me4Pal, αMeY; acylated Lys; C-terminal amide; synthetic construct; SITE 2: note = 2-Aminoisobutyric Acid; SITE 10: note = 3-(4-Pyridyl)-L-alanine; SITE 13: note = alpha-methyl-leucine; SITE 16: note = L-ornithine; SITE 17: note = Lysine is chemically modified through conjugation of the epsilon-amino group of the Lysine side chain with D-Glutami) [Example 1070] , report its measured Relative cAMP EC50.
Reply: 0.167

Query: Given the entry YXQGTXTSDXXIXLDXKAQXEFIEXLIEGGPPSXXPPPEGE (non-natural residues; lipidated Lys; C-terminal amide; synthetic construct; SITE 2: note = 2-Aminoisobutyric Acid; SITE 6: note = alpha-methyl-2-fluoro-L-phenylalanine; SITE 10: note = 3-(4-Pyridyl)-L-alanine; SITE 11: note = alpha-methyl-L-serine; SITE 13: note = alpha-methyl-leucine; SITE 16: note = L-ornithine; SITE 17: note = Lysine is chemically mo) [Example 1194] , report its measured Relative cAMP EC50.
Reply: 0.00725

Query: Given the entry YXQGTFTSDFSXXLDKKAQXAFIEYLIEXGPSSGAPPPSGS (synthetic construct; SITE 2: note = 2-Aminoisobutyric Acid; SITE 12: note = (S)-2,4-diaminobutanoic acid; SITE 13: note = alpha-methyl-leucine; SITE 17: note = Lysine is chemically modified through conjugation of the epsilon-amino group of the Lysine side chain with (2-[2-(2-Amino-ethoxy)-ethoxy]-ac)) [Example 799] , report its measured Relative cAMP EC50.
Reply: 0.0668

Query: Given the entry YXQGTXTSDXXIXLDXKAAXEFIEXLIEGGPSSGAPPPSGEE (synthetic construct; SITE 2: note = 2-Aminoisobutyric Acid; SITE 6: note = alpha-methyl-2-fluoro-L-phenylalanine; SITE 10: note = 3-(4-Pyridyl)-L-alanine; SITE 11: note = alpha-methyl-L-serine; SITE 13: note = alpha-methyl-leucine; SITE 16: note = L-ornithine; SITE 17: note = Lysine is chemically mo) [Example 703] , report its measured Relative cAMP EC50.
Reply: 0.0101

Query: Given the entry YXQGTFTSDFSXXLDKKAQXAFIEYLLEAGPSSGAPPPSGS (Aib, Orn, αMeL, D-Ala; acylated Lys; synthetic construct; SITE 2: note = 2-Aminoisobutyric Acid; SITE 12: note = L-ornithine; SITE 13: note = alpha-methyl-leucine; SITE 17: note = Lysine is chemically modified through conjugation of the epsilon-amino group of the Lysine side chain with (2-[2-(2-Amino-ethoxy)-ethoxy]-acetyl)-(gamma-Glu)) [Example 212] , report its measured Relative cAMP EC50.
Reply: 0.13
